- system: UniProt Q61263
- Sequence (Q61263 whole entry, looked up): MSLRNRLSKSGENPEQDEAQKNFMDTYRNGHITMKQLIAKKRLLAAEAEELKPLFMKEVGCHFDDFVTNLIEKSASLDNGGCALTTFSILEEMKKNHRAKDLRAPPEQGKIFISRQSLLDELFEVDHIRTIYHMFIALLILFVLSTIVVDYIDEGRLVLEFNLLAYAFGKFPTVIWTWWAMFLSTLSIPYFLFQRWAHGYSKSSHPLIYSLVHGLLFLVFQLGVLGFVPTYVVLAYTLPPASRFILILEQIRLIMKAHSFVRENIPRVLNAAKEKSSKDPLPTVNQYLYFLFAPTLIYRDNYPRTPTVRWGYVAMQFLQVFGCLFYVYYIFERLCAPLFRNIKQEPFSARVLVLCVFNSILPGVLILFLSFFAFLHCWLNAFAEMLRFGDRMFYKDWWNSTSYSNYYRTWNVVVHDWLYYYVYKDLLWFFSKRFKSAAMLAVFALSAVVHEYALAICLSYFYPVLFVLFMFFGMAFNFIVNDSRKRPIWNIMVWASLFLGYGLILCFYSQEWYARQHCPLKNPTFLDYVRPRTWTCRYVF
- experiment.notes: Inhibition of Acyl coenzyme A:cholesterol acyltransferase by cellular MAI2 assay
value.type: IC50 (µM)
Report the value in µM with no unit label.

Q: Quickly give me recorded IC50 for CCCCCCCCCCCCOC(=O)C(C(=O)Nc1c(C(C)C)cccc1C(C)C)c1ccccc1 (stereo unspecified)
A: 0.02

src = BindingDB's records for doi:10.1021/jm970560h
